Test system: DLD1
Experiment: TCF/Wnt firefly luciferase reporter signal relative to plate median (fraction of plate median); higher = higher Wnt reporter signal
Settings: 5 µM; treatment time 24 h; reporter: 7TFP
Is TCF/Wnt firefly luciferase reporter signal at least 1? Then Yes. If not, No.

Problem: State whether the measured TCF/Wnt firefly luciferase reporter signal reaches 1, counting equality as reaching it, for `CC[C@H]1OC(=O)[C@H](C)C(=O)[C@H](C)[C@@H](O[C@@H]2O[C@H](C)C[C@H](N(C)C)[C@H]2O)[C@](C)(OC)C[C@@H](C)C(=O)[C@H](C)[C@H]2N(CCCCn3cnc(-c4cccnc4)c3)C(=O)O[C@]12C`
Solution: Yes

Problem: State whether the measured TCF/Wnt firefly luciferase reporter signal reaches 1, counting equality as reaching it, for `C=C1c2cccc(O)c2C(=O)C2=C(O)[C@]3(O)C(=O)C(C(N)=O)=C(O)[C@@H](N(C)C)[C@@H]3[C@@H](O)[C@H]12`
Solution: Yes

Problem: State whether the measured TCF/Wnt firefly luciferase reporter signal reaches 1, counting equality as reaching it, for `COc1ccc(NS(=O)(=O)c2ccc(N)cc2)nn1`
Solution: Yes
